- MEASURED TARGET: vesicular acetylcholine transporter (VAChT) (Lucilia sericata, UniProt Z9IC98WFD0)
- PROTOCOL NOTES: [3H]-A1 radioligand binding and competitive displacement, Lucilia sericata head membrane
- ASSAY CONTEXT: read-out: Affinity at the [3H]-A1 binding site, competitive displacement; Lucilia head membrane, 9 nM [3H]-A1
MEASURE: IC50 (nM)
Use nM as the unit, but write only the number.

query: Param request: IC50 | system vesicular acetylcholine transporter (VAChT) (Lucilia sericata, UniProt Z9IC98WFD0) | item `CCS(=O)(=O)c1cccnc1-c1nc2cc(S(=O)(=O)C(F)(F)F)ccc2o1`
result: 2

###

- MEASURED TARGET: vesicular acetylcholine transporter (VAChT) (Lucilia sericata, UniProt Z9IC98WFD0)
- PROTOCOL NOTES: [3H]-A1 radioligand binding and competitive displacement, Lucilia sericata head membrane
- ASSAY CONTEXT: Lucilia membranes; ligands with identified target proteins; read-out: [3H]-A1 displacement IC50
pIC50: −log10 of the molar value.
MEASURE: pIC50

query: # return recorded pIC50 for entry N#Cc1nn(-c2c(Cl)cc(C(F)(F)F)cc2Cl)c(N)c1[S+]([O-])C(F)(F)F (stereo not drawn)
result: < 4.64

query: Output pIC50 of `CCN(CC)c1nc(C)cc(OP(=S)(OC)OC)n1`
result: < 4.48

query: Check the records and state pIC50 for CCCCCC[C@H]1C(=O)O[C@H](C)[C@H](NC(=O)c2cccc(NC=O)c2O)C(=O)O[C@@H](C)[C@@H]1OC(=O)CC(C)C [Antimycin A1]
result: < 4.74

query: Please look at this molecule and report its pIC50: CC(C)=CC1C(C(=O)OCN2C(=O)C3=C(CCCC3)C2=O)C1(C)C (stereo not drawn)
result: 4.76

query: Fill in pIC50 for record ClC1=C(Cl)C2(Cl)C3C4CC(C5OC45)C3C1(Cl)C2(Cl)Cl (stereo not drawn)
result: < 4.58

query: Output measured pIC50 for this item: `COC(=O)N(C(=O)N1CO[C@@]2(C(=O)OC)Cc3cc(Cl)ccc3C2=N1)c1ccc(OC(F)(F)F)cc1`
result: < 4.72

query: Note down pIC50 recorded for COC(=O)C12Cc3cc(Cl)ccc3C1=NN(C(=O)Nc1ccc(OC(F)(F)F)cc1)CO2 (stereo not drawn)
result: < 4.67

query: Please look at this molecule and report its pIC50: `O=[N+]([O-])NC1=NCCN1Cc1ccc(Cl)nc1`
result: < 4.70

query: Give recorded pIC50. `CNC(=O)c1cc(C#N)cc(C)c1NC(=O)c1cc(Br)nn1-c1ncccc1Cl`
result: < 4.67

query: Fill in reported pIC50 for this entry: `ClC1=C(Cl)[C@]2(Cl)[C@@H]3[C@@H]4C[C@@H]([C@H]5O[C@@H]45)[C@@H]3[C@@]1(Cl)C2(Cl)Cl`
result: < 4.58

query: Please report the measured pIC50 for Nc1cccc2c1CC(N1CCC(c3ccccc3)CC1)C(O)C2 (stereo not drawn)
result: 7.75

query: Assign pIC50 to the following record: CCc1ccc(C(=O)NN(C(=O)c2cc(C)cc(C)c2)C(C)(C)C)cc1 [Tebufenozide]
result: < 4.55

query: Name the recorded pIC50 of the item CC(C)(C)N(NC(=O)c1ccc(Cl)cc1)C(=O)c1ccccc1 [Halofenozide] in your answer.
result: < 4.52

query: Supply recorded pIC50 for CC(C)C(C(=O)OC(C#N)c1cccc(Oc2ccccc2)c1)c1ccc(Cl)cc1 (stereo not drawn) [Fenvalerate] here.
result: < 4.62

query: Please indicate pIC50 recorded for `O=C(c1ccnc(Cl)c1)N1CC2(CCN(C/C=C/c3ccc(Cl)cc3)CC2)c2cc(F)ccc21`
result: 8.64

query: Given the molecule `CNC(=O)O/N=C/C(C)(C)SC` , write its reported pIC50.
result: < 4.28

query: Report measured pIC50; entry is COC1CCC2(CC1)NC(=O)C(c1cc(C)ccc1C)=C2O (stereo not drawn)
result: < 4.48

query: Consider the molecule `CNC(=O)c1cc(Cl)cc(C)c1NC(=O)c1cc(Br)nn1-c1ncccc1Cl` and give its recorded pIC50.
result: < 4.68

###

Assign IC50 to each entry below.
- MEASURED TARGET: vesicular acetylcholine transporter (VAChT) (Lucilia sericata)
- PROTOCOL NOTES: [3H]-A1 radioligand binding and competitive displacement, Lucilia sericata head membrane
- ASSAY CONTEXT: Lucilia sericata head membrane, 9 nM [3H]-A1; read-out: IC50 Displacement Values of [3H]-A1
- Procedure: Methods herein were generally adapted from this publication. Binding of [^3H]-A1 was measured using Lucilia sericata head membrane suspended in 50 mM Tris HCL buffer (pH7.4) containing 120 mM NaCl, and 100 mM EDTA, at a protein concentration of 1 mg/ml for dispensing into 96 well plates to give 50 μg protein per well. […] The amount of displacement was calculated as a % of the control and the IC50 calculated from a curve fitted using a single-exponential algorithm. […]
Give your result in nM as a bare value.

query: Look up and state reported IC50 for `CCS(=O)(=O)c1c(-c2nc3cc(C(F)(F)F)cnc3n2C)nc2ccc(C(F)(F)F)cn12`
result: 2

query: Using known records, supply IC50 for `CCS(=O)(=O)c1cc(C2(C#N)CC2)cnc1-c1nc2cc(C(F)(F)F)cnc2n1C`
result: 8

query: Give the reported IC50 for this molecule. `CCS(=O)(=O)c1ccc(-n2cncn2)nc1-c1nc2cc(C(F)(F)F)cnc2n1C`
result: 10

query: // fetch IC50 given entry `CC[S@](=N)(=O)c1cc(OC(C)(C)C#N)cnc1-c1nc2cc(C(F)(F)F)cnc2n1C`
result: 25

query: Report measured IC50; entry is `CC[S@@](=N)(=O)c1cc(C2(C#N)CC2)cnc1-c1nc2cc(C(F)(F)F)ncc2n1C`
result: 40

query: Output IC50 of CCS(=N)(=O)c1cc(C(F)(F)F)cnc1-c1nc2cc(C(F)(F)F)cnc2n1C (stereo not drawn)
result: 100

query: Name the recorded IC50 of the item CCS(=N)(=O)c1cc(C2(C#N)CC2)cnc1-c1nc2cc(C(F)(F)F)nnc2n1C (stereo not drawn) in your answer.
result: 79

query: Supply recorded IC50 for `CCS(=O)(=O)c1cccnc1-c1nc2cc(S(=O)(=O)C(F)(F)F)ccc2o1` here.
result: 2

query: Identify measured IC50 associated with `CCS(=O)(=O)c1cc(C2(C#N)CC2)cnc1-c1nc2cc3c(cc2n1C)OC(F)(F)O3`
result: 4

###

- MEASURED TARGET: vesicular acetylcholine transporter (VAChT) (Lucilia sericata)
- Sequence (Z9IC98WFD0 1-593): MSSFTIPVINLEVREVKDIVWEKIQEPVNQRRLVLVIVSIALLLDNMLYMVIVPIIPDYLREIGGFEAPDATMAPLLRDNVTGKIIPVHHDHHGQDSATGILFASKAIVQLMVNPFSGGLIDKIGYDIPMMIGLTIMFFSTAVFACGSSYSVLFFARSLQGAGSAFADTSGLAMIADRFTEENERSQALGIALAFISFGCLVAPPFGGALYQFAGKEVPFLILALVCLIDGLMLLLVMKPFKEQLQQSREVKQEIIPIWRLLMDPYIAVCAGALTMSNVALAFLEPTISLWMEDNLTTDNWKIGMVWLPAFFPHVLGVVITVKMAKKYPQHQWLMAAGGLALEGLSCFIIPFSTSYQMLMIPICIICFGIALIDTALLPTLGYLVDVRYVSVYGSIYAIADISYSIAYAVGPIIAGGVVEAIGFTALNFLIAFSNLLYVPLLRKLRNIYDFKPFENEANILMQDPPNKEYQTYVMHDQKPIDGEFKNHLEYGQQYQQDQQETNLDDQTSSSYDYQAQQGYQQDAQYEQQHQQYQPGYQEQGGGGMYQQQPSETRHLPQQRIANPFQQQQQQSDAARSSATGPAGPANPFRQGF
- PROTOCOL NOTES: [3H]-A1 radioligand binding and competitive displacement, Lucilia sericata head membrane
- ASSAY CONTEXT: Lucilia head membrane, 9 nM [3H]-A1; read-out: Affinity at the [3H]-A1 binding site, competitive displacement
Can you tell me IC50 for the items I'm about to list?
Put your answer as a value accompanied by its unit after it.

query: Param request: IC50 | system vesicular acetylcholine transporter (VAChT) (Lucilia sericata) | item `CCS(=O)(=O)c1cc(C(F)(F)F)cnc1-c1nc2cc(C(F)(F)F)cnc2n1C`
result: 10 nM

query: Consider the molecule `CCS(=O)(=O)c1cc(C(F)(F)F)cnc1-c1nc2cc(C(F)(F)F)ncc2n1C` tested on vesicular acetylcholine transporter (VAChT) (Lucilia sericata); state its IC50.
result: 39 nM

query: Write down measured IC50 (vesicular acetylcholine transporter (VAChT) (Lucilia sericata)) for this molecule. `CCS(=O)(=O)c1cc(C(F)(F)F)cnc1-c1nnc(-c2cc(C(F)(F)F)ccn2)n1C`
result: 6.3 nM
